These entries and their values trace back to patent US20160297763A1.

// reported melting point for each item listed
Measured Quantity: melting point

{"Compound": "O=C(c1cc2ccccc2cn1)N(O)Cc1ccccc1", "Value Measured": "120 to 125 °C"}
{"Compound": "Cc1c(-c2ccc(F)c(C(F)(F)F)c2)sc2nc(N)[nH]c(=O)c12", "Value Measured": "310 to 330 °C"}
{"Compound": "Cc1c(-c2ccccc2)sc2nc(NCCO)[nH]c(=O)c12", "Value Measured": "227 to 229 °C"}
{"Compound": "Cc1c(-c2cccc(C#N)c2)sc2nc(N)[nH]c(=O)c12", "Value Measured": "> 350 °C"}
{"Compound": "Cl.O=C(NO)c1cc(NS(=O)(=O)Cc2cccc(Br)c2)ccn1", "Value Measured": "197 to 205 °C"}
{"Compound": "Cl.O=C(c1cc(NS(=O)(=O)Cc2cccc(F)c2)ccn1)N(O)Cc1ccccc1", "Value Measured": "111 to 113 °C"}
{"Compound": "Cc1c(-c2cc(C#N)ccc2Cl)sc2nc(N)[nH]c(=O)c12", "Value Measured": "> 350 °C"}
{"Compound": "Cc1c(-c2ccnc(C(F)(F)F)c2)sc2nc(N)[nH]c(=O)c12", "Value Measured": "335 to 355 °C"}
{"Compound": "Cl.O=C(c1cc(N2CCC(F)(F)C2)ccn1)N(O)Cc1ccccc1", "Value Measured": "162 to 166 °C"}
{"Compound": "O=C(c1cc(C2CCCCC2)ccn1)N(O)Cc1ccccc1", "Value Measured": "106 to 110 °C"}
{"Compound": "Cl.O=C(c1cc(NS(=O)(=O)Cc2cccc(Cl)c2)ccn1)N(O)Cc1ccccc1", "Value Measured": "115 to 125 °C"}
{"Compound": "Cc1cccc(-c2ccc(C(=O)N(O)Cc3ccccc3)nc2)c1", "Value Measured": "139 to 140 °C"}
{"Compound": "CC(C)(C)OC(=O)NC1CCN(c2ccnc(C(=O)N(O)Cc3ccccc3)c2)CC1", "Value Measured": "135 to 140 °C"}
{"Compound": "NC(=O)c1cccc(-c2ccnc(C(=O)N(O)Cc3ccccc3)c2)c1", "Value Measured": "158 to 162 °C"}
{"Compound": "Cl.O=C(NO)c1cc(NS(=O)(=O)Cc2cccc(Cl)c2Cl)ccn1", "Value Measured": "210 to 218 °C"}
{"Compound": "Cc1c(-c2ccccc2Cl)sc2nc(N)[nH]c(=O)c12", "Value Measured": "334 to 336 °C"}
{"Compound": "CCONC(=O)c1cc(N2CCOCC2)ccn1.Cl (hydrate or solvate)", "Value Measured": "200 to 202 °C"}
{"Compound": "Cc1c(-c2ccccc2)sc2nc(NC3CCCCC3)[nH]c(=O)c12", "Value Measured": "265 to 270 °C"}
{"Compound": "Cc1cccc(C(=O)NOCc2ccccc2)n1", "Value Measured": "75 to 80 °C"}
{"Compound": "Cc1c(-c2cccc(F)c2)sc2nc(N)[nH]c(=O)c12", "Value Measured": "310 to 330 °C"}
